The values you see were collected from patent US20170319688A1.

subject.of.test: T1, cynomolgus RSPO3 (cynomolgus, UniProt A0A2K5UTQ7 22-273)
T1 construct: also called cyno RSPO3
T1 sequence: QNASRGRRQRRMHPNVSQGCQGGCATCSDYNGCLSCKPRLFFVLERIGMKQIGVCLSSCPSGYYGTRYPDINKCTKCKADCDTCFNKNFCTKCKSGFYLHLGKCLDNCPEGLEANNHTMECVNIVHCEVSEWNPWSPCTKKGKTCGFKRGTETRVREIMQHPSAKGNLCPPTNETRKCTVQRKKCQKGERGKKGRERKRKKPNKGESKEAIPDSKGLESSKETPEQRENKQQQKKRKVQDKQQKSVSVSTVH
measurement.description: SPR (BIAcore T200), RSPO3 immobilized, antibody injected, 25 C, 1:1 Langmuir
readout.type: kon (M⁻¹ s⁻¹)
Unit M⁻¹ s⁻¹ implied. Number only.

Some solved cases for reference:
binder="chimeric 15F3 (antibody, V domains shown, Chimeric counterpart with the rat 15F3 variable domains) VH: EVQLVESGGGLVQPGRSLKLSCAASGFTFSDYDMAWVRQAPKKGLEWVATIIYDGSRAYFGDSVRGRFTVSRDNTKSTLYLQMDSLRSEDTATYYCTAHDRSFDYWGQGVMVTVSS VL: DIQMTQSPASLSASLGETVSIECLVSEDISNDFVWYQQKSGKSPQLLIYAASRLQDGVPSRFSGSGSGTRFSLRISGMQPEDEAEYFCQQSYKYPPTFGAGTKLELK" reported_measurement=210000
binder="hu4A6.L4H2 (antibody, V domains shown, CDR graft only (L4, H2); also called humanized 4A6) VH: EVQLVESGGGVVQPGRSLRLSCAASGFTFSDYDMAWVRQAPGKGLEWVATIIYDGSRTYYRDSVKGRFTISRDNSKNTLYLQMNSLRAEDTAVYYCAAHDRSFDYWGQGTMVTVSS VL: DIQMTQSPSSLSASVGDRVTITCLASEDISNDLVWYQQKPGKAPKLLIYAASRLQDGVPSRFSGSGFGTDFTLTISSLQPEDFATYYCQQSYKYLPTFGQGTKLEIK" reported_measurement=241000
binder="chimeric 4A6 (antibody, V domains shown, Chimeric counterpart of hu4A6 with the rat 4A6 variable domains) VH: EVQLVESGGGSVQPGRSLKVSCAASGFTFSDYDMAWVRQAPKKGLEWVATIIYDGSRTYYRDSVKGRFTLSRDNTKSTLCLQMDSLRSEDTATYYCAAHDRSFDYWGQGIMVTVSS VL: DIQMTQSPASLSASLGETVSIECLASEDISNDLVWYQQKSGKSPQLLIYAASRLQDGVPSRFSGSGFGTRFSLKISGMQPEDEADYFCQQSYKYLPTFGAGTKLGLK" reported_measurement=194000

// below: kon requested for another binder
Request: Requested field: kon. Item: anti-RSPO3 antibody 5D6 (WO2015/058132) (antibody, V domains shown) VH: EVQLQESGPSLVKPSQTLSLTCSVTGDSITSGYWNWIRKFPGNKFEYMGYISYSGKTYQNPSLKSRISITRDTSKNQYHLQLNSVTTEDTATYYCATYYGYGGPWFAYWGQGTLVTVSA VL: DIVLTQSPSSMYASLGERVTITCKASQDIDSYLSWFQQKPGKSPKTLIYLTNRLVDGVPSRFSGSGSGQDYSLTISSLEYEDMGIYYCLHYDEFPLTFGAGTKLEIK
Result: 461000
